Assayed target: Alpha-2A adrenergic receptor (Homo sapiens)
Experiment summary: Intrinsic activity at human adrenergic alpha-2A receptor expressed in CHO cells assessed as forskolin-induced cAMP accumulation relative to (-)-noradrenaline
Format: functional, cell-based
Measured Intrinsic activity of individual entries
Number, no unit, nothing else.

Sample answers from the record:
stdin: Could you tell me which Intrinsic activity is on file for CC(Oc1ccccc1-c1ccccc1)C1=NCCN1 (racemic) ?
stdout: 0.7

stdin: Try the compound CC(Oc1ccccc1-c1cccc(F)c1)C1=NCCN1 (racemic)
stdout: 0.58

More entries:
stdin: Could you tell me which Intrinsic activity is on file for C[C@H](Oc1ccccc1-c1ccccc1)C1=NCCN1 ?
stdout: 0.8

stdin: Try the compound CC(Oc1ccccc1-c1cccnc1)C1=NCCN1 (racemic)
stdout: 0.5

stdin: Try the compound C[C@@H](Oc1ccccc1-c1ccccc1)C1=NCCN1
stdout: 0.4

Source of measurements: ChEMBL document CHEMBL1148710
